Data origin: ChEMBL document CHEMBL5625215

experiment description: Cytotoxicity against HEK293T cells assessed as inhibition of cell growth incubated for 72 hrs under photoirradiation with 6 cool white lamps for 15 mins at 4,28 and 52 hrs after compound addition by MTT assay
Format: toxicity, cell-based, HEK-293T
assay conditions: human
measurement type: IC50 at 72 h (nM)
# unit: nM | format: bare number

Consider the following illustrative entries.
COc1cccc(COC(C)=O)c1OCC1=C2C(C)=CC(C)=[N+]2[B-](C)(C)n2c(C)cc(C)c21    1300
COc1cccc(COC(C)=O)c1OCC1=C2C(C)=C(I)C(C)=[N+]2[B-](C)(C)n2c(C)c(I)c(C)c21    200

Lookup: Which IC50 at 72 h reading was recorded for the molecule `CC1=CC(C)=[N+]2C1=C(CO)c1c(C)cc(C)n1[B-]2(C)C` ?
Found: 300

Lookup: Item under review: `COc1cccc(COC(C)=O)c1OCC1=C2C(C)=C(Br)C(C)=[N+]2[B-](C)(C)n2c(C)c(Br)c(C)c21` . Reported IC50 at 72 h?
Found: 300

* * *

experiment description: Absorption property of compound in CH3CN assessed as maximal wavelength by UV-vis spectrophotometer
Assay type: physicochemical
Below, each of the compounds is paired with its reported Activity value.
# value in nm; strip the unit string

CC(=O)OCc1ccccc1OCC1=C2C(C)=C(I)C(C)=[N+]2[B-](C)(C)n2c(C)c(I)c(C)c21    537
CC(=O)OCc1ccccc1OCC1=C2C(C)=C(Br)C(C)=[N+]2[B-](C)(C)n2c(C)c(Br)c(C)c21    531
CC1=CC(C)=[N+]2C1=C(COc1ccccc1CO)c1c(C)cc(C)n1[B-]2(C)C    510

Lookup: Which Activity is listed for `COc1cccc(CO)c1OCC1=C2C(C)=C(I)C(C)=[N+]2[B-](C)(C)n2c(C)c(I)c(C)c21` ?
Found: 535

Lookup: Which value of Activity has been reported for `CC1=C(Br)C(C)=[N+]2C1=C(COc1ccccc1CO)c1c(C)c(Br)c(C)n1[B-]2(C)C` in the records?
Found: 531

Lookup: If you can, please state the reported Activity value of `COc1cccc(COC(C)=O)c1OCC1=C2C(C)=C(Br)C(C)=[N+]2[B-](C)(C)n2c(C)c(Br)c(C)c21` .
Found: 530

Lookup: Can you share its Activity? I mean this compound: `CC(=O)OCc1ccccc1OCC1=C2C(C)=CC(C)=[N+]2[B-](C)(C)n2c(C)cc(C)c21`
Found: 510

Lookup: Using the record for `CC1=CC(C)=[N+]2C1=C(CO)c1c(C)cc(C)n1[B-]2(C)C` , report its Activity.
Found: 505

Lookup: Entry under review: `COc1cccc(CO)c1OCC1=C2C(C)=CC(C)=[N+]2[B-](C)(C)n2c(C)cc(C)c21` . Reported Activity?
Found: 510

Lookup: Using the record for `COc1cccc(CO)c1OCC1=C2C(C)=C(Br)C(C)=[N+]2[B-](C)(C)n2c(C)c(Br)c(C)c21` , report its Activity.
Found: 530

* * *

experiment description: Fluorescence property of compound in CH3CN assessed as fluorescence quantum yield by spectrofluorometric analysis
Format: physicochemical
measurement type: Activity
API doc: respond with a numeric literal and nothing else, no unit.

COc1cccc(COC(C)=O)c1OCC1=C2C(C)=CC(C)=[N+]2[B-](C)(C)n2c(C)cc(C)c21    0.27

Lookup: Any idea what Activity was measured for `CC1=CC(C)=[N+]2C1=C(CO)c1c(C)cc(C)n1[B-]2(C)C` ?
Found: 0.32

Lookup: Need Activity, item `COc1cccc(COC(C)=O)c1OCC1=C2C(C)=C(I)C(C)=[N+]2[B-](C)(C)n2c(C)c(I)c(C)c21`
Found: 0.017

Lookup: Given the compound `CC1=C(Br)C(C)=[N+]2C1=C(COc1ccccc1CO)c1c(C)c(Br)c(C)n1[B-]2(C)C` , what is its reported Activity?
Found: 0.04

Lookup: Entry `CC1=C(I)C(C)=[N+]2C1=C(COc1ccccc1CO)c1c(C)c(I)c(C)n1[B-]2(C)C` has what Activity?
Found: 0.005

Lookup: So what does the record say about Activity for `COc1cccc(CO)c1OCC1=C2C(C)=C(I)C(C)=[N+]2[B-](C)(C)n2c(C)c(I)c(C)c21` ?
Found: 0.012

Lookup: Name the reported Activity value associated with the compound `COc1cccc(CO)c1OCC1=C2C(C)=C(Br)C(C)=[N+]2[B-](C)(C)n2c(C)c(Br)c(C)c21`
Found: 0.04

Lookup: What value of Activity has been reported for the following compound? `CC(=O)OCC1=C2C(C)=CC(C)=[N+]2[B-](F)(F)n2c(C)cc(C)c21`
Found: 0.99

Lookup: Look up Activity: `CC(=O)OCc1ccccc1OCC1=C2C(C)=CC(C)=[N+]2[B-](C)(C)n2c(C)cc(C)c21`
Found: 0.28

Lookup: // returns reported Activity for input `CC(=O)OCc1ccccc1OCC1=C2C(C)=C(Br)C(C)=[N+]2[B-](C)(C)n2c(C)c(Br)c(C)c21`
Found: 0.043

Lookup: Requested read-out: Activity. Entry: `COc1cccc(COC(C)=O)c1OCC1=C2C(C)=C(Br)C(C)=[N+]2[B-](C)(C)n2c(C)c(Br)c(C)c21`
Found: 0.034

Lookup: Reported Activity, compound `CC1=CC(C)=[N+]2C1=C(COc1ccccc1CO)c1c(C)cc(C)n1[B-]2(C)C` : ____
Found: 0.33

Lookup: What does the record list as Activity for `CC(=O)OCc1ccccc1OCC1=C2C(C)=C(I)C(C)=[N+]2[B-](C)(C)n2c(C)c(I)c(C)c21` ?
Found: 0.005

Lookup: Any idea what its Activity is? The compound is `COc1cccc(CO)c1OCC1=C2C(C)=CC(C)=[N+]2[B-](C)(C)n2c(C)cc(C)c21`
Found: 0.33

* * *

Parameter IC50 at 72 h: see the listing below.
experiment description: Cytotoxicity against human HaCaT cells assessed as inhibition of cell growth incubated for 72 hrs under photoirradiation with 6 cool white lamps for 15 mins at 4,28 and 52 hrs after compound addition by MTT assay
Assay type: toxicity, cell-based
Put down the number, then write its unit next to it.

Use the examples below as a reference point.
CC1=CC(C)=[N+]2C1=C(CO)c1c(C)cc(C)n1[B-]2(C)C    300 nM
COc1cccc(COC(C)=O)c1OCC1=C2C(C)=C(I)C(C)=[N+]2[B-](C)(C)n2c(C)c(I)c(C)c21    200 nM
COc1cccc(COC(C)=O)c1OCC1=C2C(C)=C(Br)C(C)=[N+]2[B-](C)(C)n2c(C)c(Br)c(C)c21    300 nM

Attention now shifts to the item below.
Lookup: IC50 at 72 h for `COc1cccc(COC(C)=O)c1OCC1=C2C(C)=CC(C)=[N+]2[B-](C)(C)n2c(C)cc(C)c21` ?
Found: 600 nM

* * *

experiment description: Absorption property of compound in CH3CN assessed as maximal wavelength by UV-vis spectrophotometer
Type: physicochemical
measurement type: Activity
The answer consists of two parts: a number and, after it, its unit.

Check out these entries, answers already filled in.
COc1cccc(COC(C)=O)c1OCC1=C2C(C)=CC(C)=[N+]2[B-](C)(C)n2c(C)cc(C)c21    510 nm
COc1cccc(COC(C)=O)c1OCC1=C2C(C)=C(I)C(C)=[N+]2[B-](C)(C)n2c(C)c(I)c(C)c21    535 nm
CC1=C(I)C(C)=[N+]2C1=C(COc1ccccc1CO)c1c(C)c(I)c(C)n1[B-]2(C)C    537 nm

Shift focus to the following entry.
Lookup: Record request: Activity value, item `CC(=O)OCC1=C2C(C)=CC(C)=[N+]2[B-](F)(F)n2c(C)cc(C)c21`
Found: 517 nm

* * *

Test system: MCF7
experiment description: Antiproliferative activity against human MCF7 cells assessed as inhibition of cell growth incubated for 72 hrs under dark condition by MTT assay
Format: functional, cell-based
assay conditions: MCF7, 72 h
measurement type: IC50

The cases that follow already have their IC50 on record.
COc1cccc(COC(C)=O)c1OCC1=C2C(C)=C(Br)C(C)=[N+]2[B-](C)(C)n2c(C)c(Br)c(C)c21    ≥ 100 µM
COc1cccc(COC(C)=O)c1OCC1=C2C(C)=C(I)C(C)=[N+]2[B-](C)(C)n2c(C)c(I)c(C)c21    > 100 µM

Lookup: Which IC50 is reported with MCF7 for this entry: `CC1=CC(C)=[N+]2C1=C(CO)c1c(C)cc(C)n1[B-]2(C)C` ?
Found: > 100 µM

* * *

experiment description: Emission property of compound in CH3CN assessed as maximal wavelength by […]
Assay type: physicochemical
measurement type: Activity (nm)
Reply with just the number (in nm).

CC(=O)OCC1=C2C(C)=CC(C)=[N+]2[B-](F)(F)n2c(C)cc(C)c21    528
CC1=C(I)C(C)=[N+]2C1=C(COc1ccccc1CO)c1c(C)c(I)c(C)n1[B-]2(C)C    560

Lookup: Reported Activity for `CC1=CC(C)=[N+]2C1=C(CO)c1c(C)cc(C)n1[B-]2(C)C` : what is it?
Found: 517

Lookup: Query (compound): `COc1cccc(CO)c1OCC1=C2C(C)=C(I)C(C)=[N+]2[B-](C)(C)n2c(C)c(I)c(C)c21` ; field requested: Activity
Found: 560

Lookup: Give the measured Activity of `COc1cccc(COC(C)=O)c1OCC1=C2C(C)=C(Br)C(C)=[N+]2[B-](C)(C)n2c(C)c(Br)c(C)c21` .
Found: 559

Lookup: Quick one: Activity of `CC(=O)OCc1ccccc1OCC1=C2C(C)=C(Br)C(C)=[N+]2[B-](C)(C)n2c(C)c(Br)c(C)c21` ?
Found: 558

Lookup: Activity for `CC(=O)OCc1ccccc1OCC1=C2C(C)=C(I)C(C)=[N+]2[B-](C)(C)n2c(C)c(I)c(C)c21` ?
Found: 565

Lookup: Using the record for `COc1cccc(COC(C)=O)c1OCC1=C2C(C)=CC(C)=[N+]2[B-](C)(C)n2c(C)cc(C)c21` , report its Activity.
Found: 522

Lookup: Activity for `CC1=CC(C)=[N+]2C1=C(COc1ccccc1CO)c1c(C)cc(C)n1[B-]2(C)C` ?
Found: 527

Lookup: Which Activity is reported for this compound? `COc1cccc(COC(C)=O)c1OCC1=C2C(C)=C(I)C(C)=[N+]2[B-](C)(C)n2c(C)c(I)c(C)c21`
Found: 545

Lookup: I am curious: what Activity value has been reported for `CC(=O)OCc1ccccc1OCC1=C2C(C)=CC(C)=[N+]2[B-](C)(C)n2c(C)cc(C)c21` ?
Found: 521

Lookup: Looking for the measured Activity of `COc1cccc(CO)c1OCC1=C2C(C)=C(Br)C(C)=[N+]2[B-](C)(C)n2c(C)c(Br)c(C)c21` , can you help?
Found: 555
